Tested on: HCC-2998 colon
Test: NCI-60 one-dose screen, 48 h (100 = growth as untreated, 0 = no growth, -100 = all killed)
Conditions: 10 µM unless noted
This is part of a sample that, as a whole, favours compounds with a hit. Of some 83,000 tested, about 20% had one in any assay.
MEASURED_ENDPOINT: growth (%)
Enter your answer as a number in %; do not include the unit.

Answered cases to consult:
MOLECULE	TARGET_OF_ASSAY	growth / %
C/C(=C(\c1ccc(OCCN2CCOCC2)cc1)c1ccc(OC(=O)Cc2ccccc2)cc1)c1ccc(Cl)cc1	HCC-2998 colon	88.4
Cc1ccc(N2CCN(CCC#N)CC2)cc1	HCC-2998 colon	88
Cn1cc(-c2csc(-c3cn(CCCCN4CCOCC4)c4ccc(F)cc34)n2)c2cccnc21	HCC-2998 colon	92.4

molecule C[N+]1(C)CCCC1c1cccnc1 (centres undefined) , growth observed: 91.2

====

Attribute: growth
System: CCRF-CEM leukemia
Test: NCI-60 one-dose screen, 48 h (100 = growth as untreated, 0 = no growth, -100 = all killed)
Conditions: 10 µM unless noted
About 83,000 compounds went through this panel and 20% of them were active in at least one assay; those are over-represented in the sample as a whole.
Enter your answer as a number in %; do not include the unit.

COMPOUND	UNIT_NAME	growth
O=NN1CCCCC1	%	104
CN1C2CCC1[C@@H](COC(=O)c1ccccc1)[C@@H](O)C2 (stereo partly specified)	%	94.3
C[C@]12CC[C@H](O)C[C@@H]1CC[C@@H]1[C@@H]2CC[C@]2(C)OC(=O)CC[C@@H]12	%	114
Cc1cc[n+](CCc2ccccc2)cc1	%	101
NC1CN2CCC1CC2 (stereo unspecified)	%	93

Here's the next entry for you.
compound N#CC(NC(=O)CCl)=C(Cl)Cl , growth observed: -21.9

====

System: RXF 393 renal
Assay: NCI-60 one-dose screen, 48 h
Settings: 10 µM unless noted
Compounds without any hit were thinned out: in the full panel of roughly 83,000, 20% have a hit. The source made the active and inactive calls. Rule for the calls: active = growth percent below 10; inactive = the rest.
Classes to choose from: class 1 (active), class 0 (inactive)

MOLECULE	LABEL_CLASS
CCOP(=O)(OCC)C(=O)N(CC)CC	class 0

Moving on to another molecule below.
[ask] Outcome logged for CCCC(C)SP(=S)(SC(C)CCC)SC(C)CCC (stereo not given) in this assay:
[reply] class 0

====

System: LOX IMVI melanoma
Assay: NCI-60 one-dose screen, 48 h (100 = growth as untreated, 0 = no growth, -100 = all killed)
Conditions: 10 µM unless noted
Description: Growth inhibition of the LOX IMVI human tumor cell line is measured as a screen for anti-cancer activity. Cells are grown in 96 well plates and exposed to the test compound for 48 hours. Compounds are tested at a single concentration, which is 10^-5 M for most compounds. The reported endpoint is percent growth (GI% or GIPRCNT), where numbers from 0 - 100% represent growth inhibition, and numbers from -100% - 0 represent cell death. For example, a value of 40 represents 60% growth inhibition. […]
Compounds without any hit were thinned out: in the full panel of roughly 83,000, 20% have a hit.
Attribute: growth
Enter your answer as a number in %; do not include the unit.

Answered cases to consult:
MOLECULE	UNIT_NAME	growth
Cc1ccc(N2CCN(CCC#N)CC2)cc1	%	101
O=C(Cc1ccccc1)c1ccccc1	%	106
O=C1CN2CCC1CC2	%	104
COC(=O)C1=CO[C@@H](C)[C@@H]2CN3CCc4c([nH]c5cc(OC)ccc45)[C@@H]3C[C@H]12	%	94.6
O=C(O)C(Br)CBr (stereo unspecified)	%	94.3

molecule CCOC(=O)P(=O)(OCC)OCC , growth observed: 91.6

molecule C[C@]12CCc3sc(Nc4ccc(F)cc4F)nc3C1=CC[C@@H]1[C@@H]2CC[C@]2(C)C(=O)CC[C@@H]12 , growth observed: -49.7

molecule CCCC[C@H]1C(=O)O[C@H](C)[C@H](NC(=O)c2cccc(NC=O)c2O)C(=O)O[C@@H](C)[C@@H]1OC(=O)CC(C)C , growth observed: 32.9

molecule CCOP(=O)(OCC)C(=O)N(CC)CC , growth observed: 104

molecule C#Cc1cccc(Nc2nc(Cl)nc3cc(NC(=O)CF)ccc23)c1 , growth observed: 65.2

molecule C/C(=N/OC(=O)N(C)C)c1ccc(Cl)c(Cl)c1 , growth observed: 99.2
